// provenance: patent US5837483A

# TEST_NAME: Partition of F-L-Asp between water-immiscible organic solvent and aqueous phase (distribution ratio, eq. 2)
# Assay type: physicochemical
# EXPERIMENTAL_PARAMETERS: tri-butyl phosphoric acid/water, 40° C; read-out: pKF-L-Asp2
METRIC_NAME: pKa
Write the value as a bare number.

For this molecule ( O=CN[C@@H](CC(=O)O)C(=O)O ), measured pKa is 4.44

###

# TEST_NAME: Partition of F-APM between water-immiscible organic solvent and aqueous phase (distribution ratio, eq. 1)
# Type: physicochemical
# EXPERIMENTAL_PARAMETERS: methyl ethyl ketone/water, 40° C; read-out: pKF-APM
Residues, ends and D or L forms follow the SMILES beside them. *: point of attachment. For = O=C*
METRIC_NAME: pKa

Looking up COC(=O)[C@H](Cc1ccccc1)NC(=O)[C@H](CC(=O)O)NC=O [F-APM] (For-Asp-Phe-OMe) , I found its pKa recorded as 4.61

###

# TEST_NAME: Partition of F-L-Asp between water-immiscible organic solvent and aqueous phase (distribution ratio, eq. 2)
# Format: physicochemical
# EXPERIMENTAL_PARAMETERS: n-amylalcohol/water, 40° C; read-out: pKF-L-Asp2
METRIC_NAME: pKa

Just so you know, measured pKa for O=CN[C@@H](CC(=O)O)C(=O)O [F-L-Asp, N-formyl-L-aspartic acid] came out at 4.17

###

# TEST_NAME: Partition of F-APM between water-immiscible organic solvent and aqueous phase (distribution ratio, eq. 1)
# Type: physicochemical
# EXPERIMENTAL_PARAMETERS: 1-butanol/water, 40° C; read-out: pKF-APM
Residues, ends and D or L forms follow the SMILES beside them. *: point of attachment. For = O=C*
METRIC_NAME: pKa

For this molecule ( COC(=O)[C@H](Cc1ccccc1)NC(=O)[C@H](CC(=O)O)NC=O [F-APM] (For-Asp-Phe-OMe) ), measured pKa is 4.17

###

# TEST_NAME: Partition of F-L-Asp between water-immiscible organic solvent and aqueous phase (distribution ratio, eq. 2)
# Assay type: physicochemical
# EXPERIMENTAL_PARAMETERS: t-amylalcohol/water, 40° C; read-out: pKF-L-Asp2
METRIC_NAME: pKa
// response body must contain only the number

O=CN[C@@H](CC(=O)O)C(=O)O [F-L-Asp, N-formyl-L-aspartic acid] has a reported pKa of 4.63

###

# TEST_NAME: Partition of F-APM between water-immiscible organic solvent and aqueous phase (distribution ratio, eq. 1)
# Type: physicochemical
# EXPERIMENTAL_PARAMETERS: n-amylalcohol/water, 40° C; read-out: pKF-APM
# Description: The water-immiscible solvents of which distribution ratios (DF-APM) described by following equation (1) are 10^-2 or more at pH=6.0 are suitable for effective the extraction of the F-APM produced to the organic phase: [formula] wherein PF-APM =(CF-APM)org /(CF-APM)aq (1a); KF-APM ={(CF-APM.spsb.-)aq ×CH.spsb.+ (CF-APM)org : concentration of F-APM contained in the organic phase after the extraction of F-APM; […]
Residues, ends and D or L forms follow the SMILES beside them. *: point of attachment. For = O=C*
METRIC_NAME: pKa
Form rule: numeric answer, no unit written next to it.

Noted for COC(=O)[C@H](Cc1ccccc1)NC(=O)[C@H](CC(=O)O)NC=O [F-APM] (For-Asp-Phe-OMe) : its pKa reads 4.22

###

# TEST_NAME: Partition of F-L-Asp between water-immiscible organic solvent and aqueous phase (distribution ratio, eq. 2)
# Assay type: physicochemical
# EXPERIMENTAL_PARAMETERS: isobutanol/water, 40° C; read-out: pKF-L-Asp1
METRIC_NAME: pKa
Form field (numeric): enter value without unit.

response.value for O=CN[C@@H](CC(=O)O)C(=O)O [F-L-Asp, N-formyl-L-aspartic acid] (field: pKa) = 3.11

###

# TEST_NAME: Partition of F-L-Asp between water-immiscible organic solvent and aqueous phase (distribution ratio, eq. 2)
# Format: physicochemical
# EXPERIMENTAL_PARAMETERS: methyl ethyl ketone/water, 40° C; read-out: pKF-L-Asp1
# Description: Moreover, organic solvents of which distribution ratios of F-L-Asp (DF-L-Asp) described by following equation (2) are 10^-4 or less at pH=6.0 are suitable for increase of conversion ratios to F-APM because large amount of F-L-Asp can be distributed in aqueous phase: [formula] wherein PF-L-Asp =(CF-L-Asp)org /(CF-L-Asp)aq(2a); KF-L-Asp1 ={(Cf-L-Asp.spsb.-)aq ×CH.spsb.+ KF-l=Asp2 ={(CF-L-Asp.spsb.2-)aq ×CH.spsb.+ }/(CF-L-Asp.spsb.-)aq (2c); […]
METRIC_NAME: pKa
Lab note: write the figure by itself, no unit.

The compound listed as O=CN[C@@H](CC(=O)O)C(=O)O has a reported pKa of 3.43

###

# TEST_NAME: Partition of F-APM between water-immiscible organic solvent and aqueous phase (distribution ratio, eq. 1)
# Format: physicochemical
# EXPERIMENTAL_PARAMETERS: butylacetate/water (comparative), 40° C; read-out: pKF-APM
Residues, ends and D or L forms follow the SMILES beside them. *: point of attachment. For = O=C*
METRIC_NAME: pKa
No unit in the answer, only the number.

// pKa lookup, compound = COC(=O)[C@H](Cc1ccccc1)NC(=O)[C@H](CC(=O)O)NC=O [F-APM] (For-Asp-Phe-OMe) , result: 4.02

###

# TEST_NAME: Partition of F-APM between water-immiscible organic solvent and aqueous phase (distribution ratio, eq. 1)
# Type: physicochemical
# EXPERIMENTAL_PARAMETERS: methyl isobutyl ketone/water (comparative), 40° C; read-out: pKF-APM
Residues, ends and D or L forms follow the SMILES beside them. *: point of attachment. For = O=C*
METRIC_NAME: pKa
Number, no unit, nothing else.

Entry under test: COC(=O)[C@H](Cc1ccccc1)NC(=O)[C@H](CC(=O)O)NC=O [F-APM] (For-Asp-Phe-OMe) . Its pKa was 4.01

###

# TEST_NAME: Partition of F-L-Asp between water-immiscible organic solvent and aqueous phase (distribution ratio, eq. 2)
# Type: physicochemical
# EXPERIMENTAL_PARAMETERS: isobutanol/water, 40° C; read-out: pKF-L-Asp2
METRIC_NAME: pKa

response.value for O=CN[C@@H](CC(=O)O)C(=O)O (field: pKa) = 4.44

###

# TEST_NAME: Partition of F-L-Asp between water-immiscible organic solvent and aqueous phase (distribution ratio, eq. 2)
# Assay type: physicochemical
# EXPERIMENTAL_PARAMETERS: 1-butanol/water, 40° C; read-out: pKF-L-Asp1
METRIC_NAME: pKa

Per the records, this molecule ( O=CN[C@@H](CC(=O)O)C(=O)O [F-L-Asp, N-formyl-L-aspartic acid] ) has pKa equal to 2.99

###

# TEST_NAME: Partition of F-L-Asp between water-immiscible organic solvent and aqueous phase (distribution ratio, eq. 2)
# Format: physicochemical
# EXPERIMENTAL_PARAMETERS: t-amylalcohol/water, 40° C; read-out: pKF-L-Asp1
METRIC_NAME: pKa
Hey, just send me the number, nothing else.

Lookup result for O=CN[C@@H](CC(=O)O)C(=O)O ; measured pKa: 3.16
